Tested on: KM12 colon
assay_comment: NCI tumour cell line growth inhibition, 48 h
reported_endpoint: TGI

Consider the following illustrative entries.
[
  {
    "compound": "COCC(C(=O)OC1C/C=C/C=C/C(=O)OC(C(C)C(O)C(C)CCC(OC(=O)C(C)N(C)C)C(C)C(OC(C)=O)C(C)/C=C/N(C)C=O)C/C=C/C(OC)CC(C)C/C=C(\\C)C(OC)CCC(C)C(O)C1C)N(C)C (stereo not given)",
    "TGI": "< 0.0001 µM"
  },
  {
    "compound": "O=c1[nH]cnc2n[nH]nc12",
    "TGI": "> 100 µM"
  },
  {
    "compound": "O=NNc1ccc(S(=O)(=O)c2ccc3ccccc3c2)cn1",
    "TGI": "> 100 µM"
  }
]

For every listed record, write down its TGI.
1. CN=c1sc2nc(C#N)c(C#N)nc2n1C
2. O=C(Cn1c2ccc(Br)cc2c2nc3ccccc3nc21)Nc1ccccc1
3. CS(=O)(=O)Nc1cc(-c2ccc3ncnc(Nc4cccc(Cl)c4)c3c2)cnc1Cl
4. COC(=O)C(=O)C(C(=O)C(=O)Nc1ccc(C)cc1C)c1nc2ccc(Cl)cc2[nH]c1=O (stereo not given)

*A*
> 67.8 µM
> 100 µM
5.11 µM
> 100 µM
